Origin of measurements: ChEMBL document CHEMBL4610093

tested on: A549; test: Cytotoxicity against human A549 cells incubated for 4 hrs in anoxic condition followed by oxic exposure for 48 hrs by sulforhodamine B assay; format: functional
Quantity kind: log10 of GI50 (log10 of the value in nM)

INSERT INTO results (compound, measurement) VALUES
  ('COc1cc(/C=C\c2ccc(OC)c(OCc3ccc([N+](=O)[O-])s3)c2OC(C)C)cc(OC)c1OC', 2.48),
  ('COc1ccc(/C=C\c2cc(OC)c(OC)c(OC)c2)c(OS(=O)(=O)c2ccc(C)cc2)c1O', 2.28),
  ('COc1cc(/C=C\c2ccc(OC)c(OC(C)c3ccc([N+](=O)[O-])s3)c2O)cc(OC)c1OC (configuration not stated)', 1.71),
  ('COc1cc(/C=C\c2ccc(OC)c(OC(C)(C)c3ccc([N+](=O)[O-])s3)c2OC(C)C)cc(OC)c1OC', 2.69),
  ('COc1cc(/C=C\c2ccc(OC)c(OC(C)c3ccc([N+](=O)[O-])s3)c2OC(C)C)cc(OC)c1OC (configuration not stated)', 3.08),
  ('COc1ccc(/C=C\c2cc(OC)c(OC)c(OC)c2)cc1O', 0.79),
  ('COc1ccc(/C=C\c2cc(OC)c(OC)c(OC)c2)c(OC(C)c2ccc([N+](=O)[O-])s2)c1O (configuration not stated)', 2.41),
  ('COc1cc(/C=C\c2ccc(OC)c3c2OC(C)(c2ccc([N+](=O)[O-])s2)O3)cc(OC)c1OC (configuration not stated)', 2.86),
  ('COc1ccc(/C=C\c2cc(OC)c(OC)c(OC)c2)c(OCc2ccc([N+](=O)[O-])s2)c1O', 2.45),
  ('Nc1n[n+]([O-])c2ccccc2[n+]1[O-]', 3.83),
  ('COc1cc(/C=C\c2ccc(OC)c(OC(C)c3ccc([N+](=O)[O-])s3)c2OS(=O)(=O)c2ccc(C)cc2)cc(OC)c1OC (configuration not stated)', 3.52),
  ('COc1ccc(/C=C\c2cc(OC)c(OC)c(OC)c2)c(OC(C)(C)c2ccc([N+](=O)[O-])s2)c1O', 2.68);

###

biological target: Tubulin (Homo sapiens) (UniProt P68371+Q9H4B7+P0DPH7+P68366+Q13509+Q71U36+P04350+Q3ZCM7+P07437+P68363+Q9BQE3+Q6PEY2+Q13885+Q9BVA1+Q9BUF5); test: Inhibition of [3H]colchicine binding to tubulin (unknown origin) at 5 uM incubated for 10 mins by scintillation counting relative to control; type: protein-complex assay
Quantity kind: inhibition (%)

INSERT INTO measurements (molecule, unit_of_measurement, measurement) VALUES
  ('COc1ccc(/C=C\c2cc(OC)c(OC)c(OC)c2)cc1OC(C)(C)c1ccc([N+](=O)[O-])s1', '%', 33),
  ('COc1cc(/C=C\c2ccc(OC)c(OCc3ccc([N+](=O)[O-])s3)c2O)cc(OC)c1OC', '%', 58),
  ('COc1ccc(/C=C\c2cc(OC)c(OC)c(OC)c2)c(OS(=O)(=O)c2ccc(C)cc2)c1O', '%', 84),
  ('COc1ccc(/C=C\c2cc(OC)c(OC)c(OC)c2)cc1OCc1ccc([N+](=O)[O-])s1', '%', 26),
  ('COc1ccc(/C=C\c2cc(OC)c(OC)c(OC)c2)cc1OC(C)c1ccc([N+](=O)[O-])s1 (configuration not stated)', '%', 15),
  ('COc1ccc(/C=C\c2cc(OC)c(OC)c(OC)c2)c(OC(C)c2ccc([N+](=O)[O-])s2)c1O (configuration not stated)', '%', 90),
  ('COc1ccc(/C=C\c2cc(OC)c(OC)c(OC)c2)c(OC(C)(C)c2ccc([N+](=O)[O-])s2)c1O', '%', 43);

###

system: A549; assay: Cytotoxicity against human A549 cells incubated for 4 hrs in anoxic condition followed by oxic exposure for 48 hrs by sulforhodamine B assay; type: functional
Binarize GI50 at 500 nM; below is Met, at or above is Not met.

INSERT INTO assay_data (compound, group) VALUES
  ('COc1cc(/C=C\c2ccc(OC)c(OCc3ccc([N+](=O)[O-])s3)c2O)cc(OC)c1OC', 'Not met'),
  ('O=[N+]([O-])c1nccn1CC(O)CNCCBr (centres undefined)', 'Not met'),
  ('COc1ccc(/C=C\c2cc(OC)c(OC)c(OC)c2)cc1OCc1ccc([N+](=O)[O-])s1', 'Met'),
  ('COc1ccc(/C=C\c2cc(OC)c(OC)c(OC)c2)cc1OC(C)(C)c1ccc([N+](=O)[O-])s1', 'Met'),
  ('COc1ccc(/C=C\c2cc(OC)c(OC)c(OC)c2)cc1OC(C)c1ccc([N+](=O)[O-])s1 (centres undefined)', 'Met'),
  ('COc1ccc(/C=C\c2cc(OC)c(OC)c(OC)c2)c(O)c1O [COMBRETASTATIN A-1]', 'Not met'),
  ('COc1ccc(/C=C\c2cc(OC)c(OC)c(OC)c2)c(OC(C)C)c1O', 'Met'),
  ('COc1cc(/C=C\c2ccc(OC)c(OCc3ccc([N+](=O)[O-])s3)c2OS(=O)(=O)c2ccc(C)cc2)cc(OC)c1OC', 'Not met'),
  ('COc1cc(/C=C\c2ccc(OC)c3c2OC(c2ccc([N+](=O)[O-])s2)O3)cc(OC)c1OC (centres undefined)', 'Met');

###

Let's look at some compounds and their measured degraded at 48 h.
assay: Stability of the compound in pH 7.4 potassium phosphate buffer assessed as compound hydrolysis after 48 hrs; type: physicochemical; settings: read-out: Drug degradation
Quantity kind: degraded at 48 h (%)

INSERT INTO assay_data (compound, measurement) VALUES
  ('COc1ccc(/C=C\c2cc(OC)c(OC)c(OC)c2)cc1OCc1ccc([N+](=O)[O-])s1', 0.35),
  ('COc1cc(/C=C\c2ccc(OC)c(OC(C)c3ccc([N+](=O)[O-])s3)c2OS(=O)(=O)c2ccc(C)cc2)cc(OC)c1OC (configuration not stated)', 0.84),
  ('COc1ccc(/C=C\c2cc(OC)c(OC)c(OC)c2)c(OCc2ccc([N+](=O)[O-])s2)c1O', 0),
  ('COc1ccc(/C=C\c2cc(OC)c(OC)c(OC)c2)cc1OC(C)(C)c1ccc([N+](=O)[O-])s1', 0.69),
  ('COc1cc(/C=C\c2ccc(OC)c(OCc3ccc([N+](=O)[O-])s3)c2OS(=O)(=O)c2ccc(C)cc2)cc(OC)c1OC', 0.25),
  ('COc1cc(/C=C\c2ccc(OC)c(OC(C)(C)c3ccc([N+](=O)[O-])s3)c2OC(C)C)cc(OC)c1OC', 4.03),
  ('COc1cc(/C=C\c2ccc(OC)c(OC(C)c3ccc([N+](=O)[O-])s3)c2OC(C)C)cc(OC)c1OC (configuration not stated)', 0.69);

###

Parameter: RatioGI50. Scope: all listed entries.
test system: A549; assay: Ratio of GI50 for human A549 cells in oxic condition to GI50 for anoxic condition; assay type: functional
Quantity kind: RatioGI50

INSERT INTO measurements (compound, target_of_assay, quantity_kind, measurement) VALUES
  ('COc1cc(/C=C\c2ccc(OC)c3c2OC(c2ccc([N+](=O)[O-])s2)O3)cc(OC)c1OC (stereo not drawn)', 'A549', 'RatioGI50', 1.4),
  ('COc1cc(/C=C\c2ccc(OC)c(OCc3ccc([N+](=O)[O-])s3)c2O)cc(OC)c1OC', 'A549', 'RatioGI50', 0.46),
  ('COc1cc(/C=C\c2ccc(OC)c(OCc3ccc([N+](=O)[O-])s3)c2OS(=O)(=O)c2ccc(C)cc2)cc(OC)c1OC', 'A549', 'RatioGI50', 0.85),
  ('COc1cc(/C=C\c2ccc(OC)c(OC(C)c3ccc([N+](=O)[O-])s3)c2OS(=O)(=O)c2ccc(C)cc2)cc(OC)c1OC (stereo not drawn)', 'A549', 'RatioGI50', 1.4),
  ('Nc1n[n+]([O-])c2ccccc2[n+]1[O-] [TIRAPAZAMINE]', 'A549', 'RatioGI50', 9.2),
  ('COc1ccc(/C=C\c2cc(OC)c(OC)c(OC)c2)cc1OCc1ccc([N+](=O)[O-])s1', 'A549', 'RatioGI50', 3.4),
  ('COc1ccc(/C=C\c2cc(OC)c(OC)c(OC)c2)c(OC(C)(C)c2ccc([N+](=O)[O-])s2)c1O', 'A549', 'RatioGI50', 12.5),
  ('COc1ccc(/C=C\c2cc(OC)c(OC)c(OC)c2)c(OC(C)c2ccc([N+](=O)[O-])s2)c1O (stereo not drawn)', 'A549', 'RatioGI50', 0.69);

###

Measured metabolised at 1.5 h accompanies every entry in the list below.
target: NADPH-cytochrome P450 oxidoreductase (Rattus norvegicus); experiment: Substrate activity at rat NADPH-cytochrome P450 oxidoreductase expressed in supersomes assessed as compound cleavage after 90 mins in anaerobic condition by HPLC analysis; conditions: read-out: Drug degradation
Sequence (P00388 whole entry): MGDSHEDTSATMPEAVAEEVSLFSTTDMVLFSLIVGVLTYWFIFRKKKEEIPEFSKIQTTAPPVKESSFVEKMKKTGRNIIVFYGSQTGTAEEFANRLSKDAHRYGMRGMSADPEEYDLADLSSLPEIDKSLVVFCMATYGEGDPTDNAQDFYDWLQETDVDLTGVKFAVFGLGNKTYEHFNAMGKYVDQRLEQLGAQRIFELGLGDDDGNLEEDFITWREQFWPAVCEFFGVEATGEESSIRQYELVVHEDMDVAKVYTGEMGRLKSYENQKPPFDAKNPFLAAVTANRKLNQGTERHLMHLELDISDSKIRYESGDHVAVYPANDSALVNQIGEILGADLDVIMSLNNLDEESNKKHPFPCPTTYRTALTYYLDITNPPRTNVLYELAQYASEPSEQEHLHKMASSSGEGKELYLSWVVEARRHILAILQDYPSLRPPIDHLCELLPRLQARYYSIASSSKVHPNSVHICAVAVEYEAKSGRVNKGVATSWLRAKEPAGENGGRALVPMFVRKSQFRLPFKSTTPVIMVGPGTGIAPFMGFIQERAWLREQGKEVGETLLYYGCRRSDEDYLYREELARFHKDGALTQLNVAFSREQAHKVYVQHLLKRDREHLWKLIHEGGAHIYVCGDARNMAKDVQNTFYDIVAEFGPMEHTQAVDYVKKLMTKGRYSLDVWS
Quantity kind: metabolised at 1.5 h (%)

INSERT INTO results (molecule, measurement) VALUES
  ('COc1cc(/C=C\c2ccc(OC)c(OC(C)c3ccc([N+](=O)[O-])s3)c2O)cc(OC)c1OC (configuration not stated)', 25.5),
  ('COc1ccc(/C=C\c2cc(OC)c(OC)c(OC)c2)cc1OC(C)(C)c1ccc([N+](=O)[O-])s1', 25.4),
  ('COc1cc(/C=C\c2ccc(OC)c(OCc3ccc([N+](=O)[O-])s3)c2OC(C)C)cc(OC)c1OC', 1.1),
  ('COc1cc(/C=C\c2ccc(OC)c(OC(C)c3ccc([N+](=O)[O-])s3)c2OS(=O)(=O)c2ccc(C)cc2)cc(OC)c1OC (configuration not stated)', 13.5),
  ('COc1ccc(/C=C\c2cc(OC)c(OC)c(OC)c2)c(OCc2ccc([N+](=O)[O-])s2)c1O', 14.2),
  ('COc1ccc(/C=C\c2cc(OC)c(OC)c(OC)c2)c(OC(C)c2ccc([N+](=O)[O-])s2)c1O (configuration not stated)', 5.6),
  ('COc1cc(/C=C\c2ccc(OC)c(OCc3ccc([N+](=O)[O-])s3)c2O)cc(OC)c1OC', 17.9),
  ('COc1cc(/C=C\c2ccc(OC)c(OC(C)c3ccc([N+](=O)[O-])s3)c2OC(C)C)cc(OC)c1OC (configuration not stated)', 3.8),
  ('COc1ccc(/C=C\c2cc(OC)c(OC)c(OC)c2)cc1OCc1ccc([N+](=O)[O-])s1', 2.7),
  ('COc1ccc(/C=C\c2cc(OC)c(OC)c(OC)c2)c(OC(C)(C)c2ccc([N+](=O)[O-])s2)c1O', 100),
  ('COc1ccc(/C=C\c2cc(OC)c(OC)c(OC)c2)cc1OC(C)c1ccc([N+](=O)[O-])s1 (configuration not stated)', 4.1),
  ('COc1cc(/C=C\c2ccc(OC)c(OC(C)(C)c3ccc([N+](=O)[O-])s3)c2OC(C)C)cc(OC)c1OC', 7.6);
